// reported GFP expression 24 hours after washing, % of vehicle-treated control cells per item
Test system: J-Lat 10.6 cells
Assay type: cell-based
reported-conditions: 10 μM for 21 days, washed, 24 h drug-free, J-Lat 10.6
measured-metric: GFP expression 24 hours after washing, % of vehicle-treated control cells

INSERT INTO results (compound, readout_value) VALUES
  ('COc1cc(F)ccc1-c1ncnc(Nc2cccc(C[S@](C)(=N)=O)c2)n1 [Atuveciclib, atuveciclib, reference compound]', '53.0 ± 0.8%'),
  ('O=c1cc(-c2ccccc2)oc2cc(O)cc(O)c12', '70.9 ± 65.6%'),
  ('O=c1cc(-c2ccc(O)cc2)oc2cc(O)cc(O)c12', '80.6 ± 80.5%'),
  ('O=c1cc(-c2ccc(O)c(O)c2)oc2cc(O)cc(O)c12', '79.9 ± 26.6%');
